Measured values drawn from the supplement of paper PMC6555819 for this set.

- System: PPARg:RXRa DBDmut IVT, anti-RXR (DBD mutation: RXRa K156A/R161A, NR concentration 270 nM, RXRa partner concentration 90 nM)
- Assay: PBM binding z-score (relative to random genomic background probes); higher = stronger binding; sequences stand for … in GC…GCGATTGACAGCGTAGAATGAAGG
Parameter Measured: PBM binding z-score

• TCATATAGGTAAGACAGGTGAAAGTCGGCATCTA = 3.27
• TGTTGTAGATCAACAGGAGGTTAAGAAAGATCGA = -0.279
• ACTATTAGTTGAGACGAGGGCAACCGATAGGTTG = 0.0589
• CCGACTGGGGCAAGATTACCATAACGCACAGCCA = 2.97
• AGTCAAAGTTCACTAGGTAACGTATGATTCAGCT = 2.65
• CAAACTAGGTCACAGCGGTCAAAGTCCGTGCGTA = 8.22
• CCGACTGGGGCAAGGTTAGCATAACGCACAGCCA = 2.73
• AGACCGAGGGCAATGAGTTGATAGCACGGGTGGC = 0.184
• TCGAGTAGGTTAGGGGCATTAAGAATGGCGTCGA = 2.21
• CAAACTAGGTCAAAGGTGAAAGTCGAGCCAACCA = 8.83
• CGTCCAATGTCAGAGAGGTCAGTGAATGCCGAGT = 0.575
• CCTACTGGGCCAAGGGTCATTGATTCCAATGCTC = 3.29
• CCTTACGGGTCACGAGGTTATAGCACGACGAGCG = 3.98
• CAAACTAGGTCAAAGGTCAAAGTGGAGCCAACCA = 8.72
• CCTTACGGGTCACTCCAGGTTATCGCATCGGAGT = 2.41
• CGAACTAGGTCATTGTCAGGACAGTGAATAGTAA = 8.22
• CCTACTGGGCCAAGGTCGTTGATCAGTCAAAGCA = 3.4
• CCTGCTAGGTCATGGTCAACTAATCTACAGTATG = 4.88
• ATTGAAAGGTCGAGGTGAGTATAGAGAAAGGGAA = 0.763
• CAGACTAGGTCAAGGTCAAAGTCGGTTTGTGCCA = 7.69
• ATATGTAGGTTACATCCGGGTCATTAAGGCTATG = 7.73
• TCATGTAGATCAACAGGAGGTTAAGAAAGATCGA = 1.44
• GCTAATTGGTCAGTAAAAGGTCACACACCGGTCG = 1.17
• GCTTTTAGTTGAAAGGGCAACCGAATGATTCTCG = 0.524
• GCTTACGGGGCAAAGGTTATAGCATGAATAGAAT = 3.33
• TAGCCTAGGTCGTTGGGCCAGTATAGTACGCATC = -0.226

====

- Tested on: VDR:RXRa (NR concentration 270 nM, RXRa partner concentration 90 nM)
- Assay: PBM binding z-score (relative to random genomic background probes); higher = stronger binding; sequences stand for … in GC…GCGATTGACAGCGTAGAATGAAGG
Parameter Measured: PBM binding z-score

- TCTTGTTGGTCACGGAGGTCACACACGACGGGTA: 6.07
- GCTTGTAGATCAAGGTTTAGAAAGACTAAGCTAA: -0.245
- GCTTGTAGATCAAGGTTAAGGAAGACTAAGCTAA: 0.00298
- GTACCAAGGTGAATAGGTCGTTGAAGAGTAGGCG: 1.01
- CGTCCAAGGTCAGAGACGTCAGTGAATGCCGAGT: 2.76
- TCTAGCAGGCCAGCGGGTCACTCAAGAGGTACGG: 0.435
- CGAACCAGGGCATGAGTTGATAGCAAATGCCGAT: 0.253
- GCTCGGAGCACAAGGTCAGAGCTTTGTCCGTAGA: 1.2
- ACTAGCACGCCAAGTTTGGGTCACTCAAACAAAG: 0.247
- GCTGCTAGGTCAGGTAGGTCAGCTAACGGGTACG: 3.35
- GCTCGGAGGGCAAGGTCAGAGCTTTGTCCGTAGA: 1.72
- CCTTACGGGTCACTCCAGGTTATAGAATCGGAGT: 4.17
